- test.summary: Kinetic solubility screen (nephelometry)
- Assay type: physicochemical
- measurement.context: aqueous phosphate buffer, aqueous buffer, kinetic from dmso stock; 50 mM phosphate buffer pH 7.4, 2 h RT, from 10 mM DMSO; read-out: Last soluble pH 7.4
attribute.measured: solubility at 2 h

Lab book: solubility at 2 h of Cn1cc(-c2ccc3nnc(Sc4ccc5nn(C)cc5c4)n3n2)cn1 noted as > 100 µM

* * *

- test.summary: Rat bioavailability study
- Format: in vivo
- measurement.context: plasma, PO 10 mg/kg vs IV 1 mg/kg, Example 1 dosed as mesylate salt, read-out: F % (oral bioavailability)
attribute.measured: bioavailability (%)
I only need the number, in %, no unit after it.

Lab book: bioavailability of Cn1cc(-c2ccc3nnc(Sc4ccc5nn(C)cc5c4)n3n2)cn1 noted as 65.8

* * *

- test.summary: Dynamic solubility
- Type: physicochemical
- measurement.context: 0.01N HCl, simulated gastric fluid, thermodynamic from solid; read-out: Dynamic solubility, 0.01N HCl
- Excerpt: […]
attribute.measured: solubility at 18 h (µg/mL)
I only need the number, in µg/mL, no unit after it.

Lab book: solubility at 18 h of Cn1cc(-c2ccc3nnc(Sc4ccc5nn(C)cc5c4)n3n2)cn1 [Example 1] noted as 11

* * *

- test.summary: Rat bioavailability study
- Format: in vivo
- measurement.context: plasma, IV 1 mg/kg solution, Example 1 dosed as mesylate salt, read-out: Vdss
attribute.measured: Vd (L/kg)
I only need the number, in L/kg, no unit after it.

Lab book: Vd of Cn1cc(-c2ccc3nnc(Sc4ccc5nn(C)cc5c4)n3n2)cn1 [Example 1] noted as 0.3

* * *

- test.summary: Dynamic solubility
- Format: physicochemical
- measurement.context: fassif, thermodynamic from solid; fasted state simulated intestinal fluid pH 6.5, 18 h ambient; read-out: Dynamic solubility, SIF Fasted
attribute.measured: solubility at 18 h (µg/mL)
I only need the number, in µg/mL, no unit after it.

Lab book: solubility at 18 h of Cn1cc(-c2ccc3nnc(Sc4ccc5nn(C)cc5c4)n3n2)cn1 noted as 13

* * *

- test.summary: Rat bioavailability study
- Assay type: in vivo
- measurement.context: plasma, IV 1 mg/kg solution, Example 1 dosed as mesylate salt, read-out: T½ (converted)
attribute.measured: half-life (h)
I only need the number, in h, no unit after it.

Lab book: half-life of Cn1cc(-c2ccc3nnc(Sc4ccc5nn(C)cc5c4)n3n2)cn1 [Example 1] noted as 2.3

* * *

- test.summary: Rat bioavailability study
- Type: in vivo
- measurement.context: plasma, PO 10 mg/kg in 10% acacia, Example 1 dosed as mesylate salt
attribute.measured: Tmax (h)
I only need the number, in h, no unit after it.

Lab book: Tmax of Cn1cc(-c2ccc3nnc(Sc4ccc5nn(C)cc5c4)n3n2)cn1 [Example 1] noted as 3.33

* * *

- test.summary: Rat bioavailability study
- Type: in vivo
- measurement.context: plasma, PO 10 mg/kg in 10% acacia, Example 1 dosed as mesylate salt
attribute.measured: Cmax (ng/mL)
I only need the number, in ng/mL, no unit after it.

Lab book: Cmax of Cn1cc(-c2ccc3nnc(Sc4ccc5nn(C)cc5c4)n3n2)cn1 noted as 9400
